Target: Histone-lysine N-methyltransferase 2A (Homo sapiens, UniProt Q03164)
Sequence (Q03164 1-2718 limits assumed): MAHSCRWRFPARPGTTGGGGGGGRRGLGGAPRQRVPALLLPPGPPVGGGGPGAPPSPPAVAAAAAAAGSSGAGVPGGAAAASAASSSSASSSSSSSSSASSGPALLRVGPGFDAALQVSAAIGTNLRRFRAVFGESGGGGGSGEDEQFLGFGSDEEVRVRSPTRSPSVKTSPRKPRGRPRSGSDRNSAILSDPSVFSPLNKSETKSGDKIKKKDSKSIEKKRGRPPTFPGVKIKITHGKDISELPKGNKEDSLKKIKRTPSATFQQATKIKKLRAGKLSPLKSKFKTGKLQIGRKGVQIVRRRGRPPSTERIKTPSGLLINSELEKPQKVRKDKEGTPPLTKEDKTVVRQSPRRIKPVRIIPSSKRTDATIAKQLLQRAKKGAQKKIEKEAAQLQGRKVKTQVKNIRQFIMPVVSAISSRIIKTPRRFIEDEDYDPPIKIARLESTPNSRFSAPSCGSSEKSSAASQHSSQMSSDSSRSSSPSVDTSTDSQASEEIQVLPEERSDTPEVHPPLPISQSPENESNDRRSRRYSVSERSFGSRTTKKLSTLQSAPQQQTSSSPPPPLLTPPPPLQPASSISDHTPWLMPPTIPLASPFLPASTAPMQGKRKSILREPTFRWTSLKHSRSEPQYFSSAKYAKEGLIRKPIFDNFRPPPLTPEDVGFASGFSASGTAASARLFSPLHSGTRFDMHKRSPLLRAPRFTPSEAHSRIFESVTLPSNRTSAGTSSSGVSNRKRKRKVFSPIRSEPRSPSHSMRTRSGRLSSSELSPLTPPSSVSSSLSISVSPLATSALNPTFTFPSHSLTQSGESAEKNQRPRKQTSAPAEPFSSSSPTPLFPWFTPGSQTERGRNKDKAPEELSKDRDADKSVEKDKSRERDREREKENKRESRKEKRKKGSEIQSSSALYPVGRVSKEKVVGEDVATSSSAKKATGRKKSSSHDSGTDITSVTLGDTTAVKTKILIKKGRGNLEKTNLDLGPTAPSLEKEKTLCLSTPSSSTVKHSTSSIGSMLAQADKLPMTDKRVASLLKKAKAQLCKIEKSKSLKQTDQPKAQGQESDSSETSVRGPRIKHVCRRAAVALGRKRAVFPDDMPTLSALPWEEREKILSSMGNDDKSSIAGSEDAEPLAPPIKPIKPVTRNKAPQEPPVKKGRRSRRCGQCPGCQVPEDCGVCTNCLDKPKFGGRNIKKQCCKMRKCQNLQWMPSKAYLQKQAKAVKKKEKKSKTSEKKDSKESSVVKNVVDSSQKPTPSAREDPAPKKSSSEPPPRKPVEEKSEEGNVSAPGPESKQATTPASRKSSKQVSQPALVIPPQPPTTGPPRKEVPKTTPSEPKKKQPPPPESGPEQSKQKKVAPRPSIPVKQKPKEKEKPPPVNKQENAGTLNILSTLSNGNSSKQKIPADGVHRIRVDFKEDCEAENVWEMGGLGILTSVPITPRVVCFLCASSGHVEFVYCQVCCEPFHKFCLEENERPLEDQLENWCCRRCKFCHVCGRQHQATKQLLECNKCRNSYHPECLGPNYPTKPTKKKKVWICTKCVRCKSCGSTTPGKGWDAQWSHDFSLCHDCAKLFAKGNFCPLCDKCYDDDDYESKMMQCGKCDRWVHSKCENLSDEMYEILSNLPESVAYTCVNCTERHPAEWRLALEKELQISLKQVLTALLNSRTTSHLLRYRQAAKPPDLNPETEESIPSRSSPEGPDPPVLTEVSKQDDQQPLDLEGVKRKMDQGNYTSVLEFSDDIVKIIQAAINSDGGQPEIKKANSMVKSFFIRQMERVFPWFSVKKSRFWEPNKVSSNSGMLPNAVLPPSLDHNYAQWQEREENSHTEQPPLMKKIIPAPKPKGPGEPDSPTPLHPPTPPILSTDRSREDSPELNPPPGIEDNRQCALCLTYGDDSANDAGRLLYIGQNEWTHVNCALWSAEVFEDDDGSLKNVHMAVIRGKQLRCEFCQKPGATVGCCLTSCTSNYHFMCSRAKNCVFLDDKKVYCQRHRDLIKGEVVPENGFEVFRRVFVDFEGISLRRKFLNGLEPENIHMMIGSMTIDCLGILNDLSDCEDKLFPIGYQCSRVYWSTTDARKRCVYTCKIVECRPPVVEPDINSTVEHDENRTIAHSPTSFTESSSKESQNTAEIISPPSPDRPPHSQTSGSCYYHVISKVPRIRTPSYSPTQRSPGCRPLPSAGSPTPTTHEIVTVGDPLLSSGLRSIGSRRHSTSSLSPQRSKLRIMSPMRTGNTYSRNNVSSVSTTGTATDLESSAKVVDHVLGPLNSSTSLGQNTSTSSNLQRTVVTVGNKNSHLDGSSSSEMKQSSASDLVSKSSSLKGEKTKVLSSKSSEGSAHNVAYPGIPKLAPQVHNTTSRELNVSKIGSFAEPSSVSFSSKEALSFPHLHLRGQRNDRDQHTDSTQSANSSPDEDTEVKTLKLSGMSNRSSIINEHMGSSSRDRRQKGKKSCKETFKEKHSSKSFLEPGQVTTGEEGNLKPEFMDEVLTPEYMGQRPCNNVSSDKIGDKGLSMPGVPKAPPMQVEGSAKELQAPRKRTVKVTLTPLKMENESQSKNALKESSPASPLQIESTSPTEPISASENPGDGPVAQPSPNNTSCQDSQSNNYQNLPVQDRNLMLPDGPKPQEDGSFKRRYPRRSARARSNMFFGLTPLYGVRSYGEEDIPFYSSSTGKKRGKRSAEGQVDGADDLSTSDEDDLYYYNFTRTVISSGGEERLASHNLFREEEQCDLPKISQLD
Sequence (Q03164 2719-3969 limits assumed): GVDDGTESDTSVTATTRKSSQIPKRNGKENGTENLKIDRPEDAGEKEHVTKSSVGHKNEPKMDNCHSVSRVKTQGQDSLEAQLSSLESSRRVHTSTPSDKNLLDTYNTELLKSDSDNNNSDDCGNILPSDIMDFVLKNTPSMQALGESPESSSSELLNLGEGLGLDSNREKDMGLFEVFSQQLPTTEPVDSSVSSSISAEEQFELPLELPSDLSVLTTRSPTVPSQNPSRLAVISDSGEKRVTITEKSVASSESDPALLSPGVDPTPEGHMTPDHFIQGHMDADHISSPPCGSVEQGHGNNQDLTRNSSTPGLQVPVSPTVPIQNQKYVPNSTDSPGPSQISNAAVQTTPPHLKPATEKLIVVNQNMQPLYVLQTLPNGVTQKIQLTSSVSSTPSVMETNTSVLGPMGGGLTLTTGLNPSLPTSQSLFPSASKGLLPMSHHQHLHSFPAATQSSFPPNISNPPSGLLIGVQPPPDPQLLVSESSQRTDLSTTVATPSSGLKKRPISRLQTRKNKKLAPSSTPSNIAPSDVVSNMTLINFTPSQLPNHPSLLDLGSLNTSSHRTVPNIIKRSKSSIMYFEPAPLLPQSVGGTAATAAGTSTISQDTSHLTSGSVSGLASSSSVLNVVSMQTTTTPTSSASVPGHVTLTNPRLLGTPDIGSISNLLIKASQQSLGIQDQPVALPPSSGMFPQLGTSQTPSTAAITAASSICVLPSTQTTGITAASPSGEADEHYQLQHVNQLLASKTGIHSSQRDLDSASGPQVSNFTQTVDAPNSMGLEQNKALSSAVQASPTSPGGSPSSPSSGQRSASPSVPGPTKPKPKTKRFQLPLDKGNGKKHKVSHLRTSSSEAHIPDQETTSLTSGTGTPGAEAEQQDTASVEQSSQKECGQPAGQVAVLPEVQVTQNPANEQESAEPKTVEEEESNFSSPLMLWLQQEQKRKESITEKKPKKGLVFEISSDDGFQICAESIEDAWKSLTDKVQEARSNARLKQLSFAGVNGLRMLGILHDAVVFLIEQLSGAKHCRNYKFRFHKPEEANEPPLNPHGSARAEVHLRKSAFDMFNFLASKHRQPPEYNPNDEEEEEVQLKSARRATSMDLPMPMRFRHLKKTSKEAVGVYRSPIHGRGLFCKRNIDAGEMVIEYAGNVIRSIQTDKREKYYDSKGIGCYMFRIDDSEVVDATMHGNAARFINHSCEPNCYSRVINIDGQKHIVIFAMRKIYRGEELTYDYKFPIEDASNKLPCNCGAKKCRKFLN
PROPERTY_LABEL: pIC50
Recall that pIC50 is obtained by taking minus log10 of the concentration measured in molar.

// pIC50 lookup, key: Nc1ncnc2c1ncn2[C@@H]1O[C@H](CSCC[C@H](N)C(=O)NCc2cc(-c3ccccc3)[nH]n2)[C@@H](O)[C@H]1O
4.73

###

Molecular target: Histone-lysine N-methyltransferase EZH2 (Homo sapiens, UniProt O75530+Q09028+Q15022+Q15910)
Sequence (Q15910 whole entry, one chain of several): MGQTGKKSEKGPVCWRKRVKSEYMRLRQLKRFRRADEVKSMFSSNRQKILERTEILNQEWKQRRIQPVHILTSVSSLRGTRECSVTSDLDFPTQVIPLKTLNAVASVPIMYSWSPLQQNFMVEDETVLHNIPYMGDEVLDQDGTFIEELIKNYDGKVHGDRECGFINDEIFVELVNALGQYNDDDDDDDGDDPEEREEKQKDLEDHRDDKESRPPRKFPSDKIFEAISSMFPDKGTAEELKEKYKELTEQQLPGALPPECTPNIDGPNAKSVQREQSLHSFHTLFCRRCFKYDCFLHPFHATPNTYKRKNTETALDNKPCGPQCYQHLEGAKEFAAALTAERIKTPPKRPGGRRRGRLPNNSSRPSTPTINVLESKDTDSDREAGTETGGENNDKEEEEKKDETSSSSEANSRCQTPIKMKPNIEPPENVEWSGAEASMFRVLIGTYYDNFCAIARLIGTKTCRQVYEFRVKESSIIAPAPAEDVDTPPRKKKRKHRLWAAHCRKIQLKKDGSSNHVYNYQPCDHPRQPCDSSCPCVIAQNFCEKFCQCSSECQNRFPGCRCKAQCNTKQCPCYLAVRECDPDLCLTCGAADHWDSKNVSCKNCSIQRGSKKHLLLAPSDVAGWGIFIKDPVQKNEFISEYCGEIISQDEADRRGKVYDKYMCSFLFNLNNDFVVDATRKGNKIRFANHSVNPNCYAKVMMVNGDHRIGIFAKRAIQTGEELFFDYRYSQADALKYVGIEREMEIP
Test: Inhibition of N-terminally FLAG-tagged wild type EZH2 in EZH2/SUZ12/EED/RbAp48 complex (unknown origin) expressed in baculovirus infected in SF9 cells assessed as inhibition of methylation of nucleosomes at H3K27 by scintillation counting in presence of [3H]SAM
PROPERTY_LABEL: pIC50
Lab note: report pIC50 as minus log10 of the concentration in molar units, number only.

Fill blank: measured pIC50 of the compound Nc1ncnc2c1ncn2[C@@H]1O[C@H](CSCC[C@H](N)C(=O)NCc2ccccc2)[C@@H](O)[C@H]1O is ____.
3.92

Given Nc1ncnc2c1ncn2[C@@H]1O[C@H](CSCC[C@H](N)C(=O)NCc2cnn(Cc3ccccc3)c2)[C@@H](O)[C@H]1O , state its recorded pIC50.
4.62

What pIC50 value was documented for this compound, Nc1ncnc2c1ncn2[C@@H]1O[C@H](CSCC[C@H](N)C(=O)NCC2CC2)[C@@H](O)[C@H]1O ?
4.22

Requested field: pIC50. Item: CCCCNC(=O)C(N)CCSC[C@H]1O[C@@H](n2cnc3c(N)ncnc32)[C@H](O)[C@@H]1O (mixture of isomers)
4.62

May I ask what pIC50 has been recorded for Nc1ncnc2c1ncn2[C@@H]1O[C@H](CSCC[C@H](N)C(=O)NCc2cnn(-c3ccc(F)cc3)c2)[C@@H](O)[C@H]1O ?
5.85

I would be grateful if you could share the reported pIC50 for Nc1ncnc2c1ncn2[C@@H]1O[C@H](CSCC[C@H](N)C(=O)NCc2cc3n(n2)CCN(Cc2ccccc2)C3)[C@@H](O)[C@H]1O .
5.10

Bench note: what pIC50 did CCCCNC(=O)[C@@H](N)CCSC[C@H]1O[C@@H](n2cnc3c(N)ncnc32)[C@H](O)[C@@H]1O show?
4.72

Report pIC50 for CN1CCn2nc(CNC(=O)[C@@H](N)CCSC[C@H]3O[C@@H](n4cnc5c(N)ncnc54)[C@H](O)[C@@H]3O)cc2C1 please.
4.30

Would you kindly share the measured pIC50 for Cn1nc(CNC(=O)[C@@H](N)CCSC[C@H]2O[C@@H](n3cnc4c(N)ncnc43)[C@H](O)[C@@H]2O)cc1C1CCC1 ?
4.40

Sample CCn1cc(CNC(=O)[C@@H](N)CCSC[C@H]2O[C@@H](n3cnc4c(N)ncnc43)[C@H](O)[C@@H]2O)cn1 — what was its pIC50?
4.30

Please give the measured pIC50 for this compound: Nc1ncnc2c1ncn2[C@@H]1O[C@H](CSCC[C@H](N)C(=O)NCc2cc(C3CCC3)[nH]n2)[C@@H](O)[C@H]1O
5.52

Tell me the measured pIC50 of CC(C)(C)c1cc(CNC(=O)[C@@H](N)CCSC[C@H]2O[C@@H](n3cnc4c(N)ncnc43)[C@H](O)[C@@H]2O)n[nH]1 , please.
4.85

Need pIC50 of COCc1cc(CNC(=O)[C@@H](N)CCSC[C@H]2O[C@@H](n3cnc4c(N)ncnc43)[C@H](O)[C@@H]2O)n[nH]1 , thanks.
4.40

Name the reported pIC50 value associated with the compound Cc1cc(CNC(=O)[C@@H](N)CCSC[C@H]2O[C@@H](n3cnc4c(N)ncnc43)[C@H](O)[C@@H]2O)n(C)n1
4.40

Fill blank: measured pIC50 of the compound Nc1ncnc2c1ncn2[C@@H]1O[C@H](CSCC[C@H](N)C(=O)NCc2cc(-c3ccccc3)[nH]n2)[C@@H](O)[C@H]1O is ____.
6.57

Record request: pIC50 value, item Cc1ccccc1-n1cc(CNC(=O)[C@@H](N)CCSC[C@H]2O[C@@H](n3cnc4c(N)ncnc43)[C@H](O)[C@@H]2O)cn1
4.55

Origin of the recorded values: ChEMBL document CHEMBL3396964
